tested on: A549/ATCC NSCLC; assay: NCI-60 one-dose screen, 48 h (100 = growth as untreated, 0 = no growth, -100 = all killed); settings: 10 µM unless noted
This is part of a sample that, as a whole, favours compounds with a hit. Of some 83,000 tested, about 20% had one in any assay.
Exam item: assign Y to entries whose growth is below 90% and N to entries at or above 90%. Note that a value of exactly 90% receives N.

These recorded examples may help you get a feel for the data.
Cc1cc(=O)oc2cc(Oc3nc(-c4cccs4)cn4c(-c5cccs5)cnc34)ccc12
Y
Cl/C(=N\Nc1ccccc1)c1ccccc1
Y
O=c1c2cccc3c(NC4CCCCC4)ccc(c32)c2nc3ccccc3n12
Y
CCOC(=O)c1cnc2ccc(Br)cc2c1Nc1cccc(S(=O)(=O)NC)c1
N
COc1ccc2nc3cc(Cl)ccc3c(NCCNCC(O)CO)c2c1 (centres undefined)
Y

Prompt line: Given COc1ccc(-c2cc(=O)[nH]c3c(OC)c4ccccc4c(OC)c23)cc1 , is recorded growth strictly lower than 90%?
Response line: Y

Prompt line: Given NS(=O)(=O)c1ccc(Nc2nc3n[nH]c(Nc4ccccc4)c3c(=O)[nH]2)cc1 , is recorded growth strictly lower than 90%?
Response line: N

Prompt line: Given CCC(C)[C@@H]1NC(=O)[C@@H]2CCCN2C(=O)[C@H](Cc2ccccc2)NC(=O)[C@@H]2CCCN2C(=O)[C@H](Cc2ccccc2)NC(=O)[C@@H]2CCCN2C(=O)[C@H](Cc2ccccc2)NC1=O (some centres undefined) , is recorded growth strictly lower than 90%?
Response line: N
